system: thromboxane A2 (TXA2); experiment: Antagonistic effect to TXA2: contraction of isolated guinea pig tracheal strips; type: cell-based, Hartley male guinea pigs; settings: Cavia porcellus, in vitro, TXA2 10^-7 M, Tyrode solution 37° C.
pIC50: −log10 of the molar value.
value-type: pIC50

Query: pIC50; subject: O=C(O)COc1ccc(CCNS(=O)(=O)c2ccc(Cl)cc2)cc1NC(=S)Nc1cccc(OCc2ccc3ccccc3n2)c1 [Example 5]
Response: 7.60

[A] O=C(O)COc1ccc(CCNS(=O)(=O)c2ccccc2)cc1NC(=O)c1cccc(OCc2ccc3ccccc3n2)c1 [Example 2]
[B] CCCc1c(OCCCCCC(=O)Nc2cc(CCNS(=O)(=O)c3ccc(Cl)cc3)ccc2OCC(=O)O)ccc(C(C)=O)c1O [Example 8]
Query: // compare measured pIC50 between A and B ; output the lower one Answer = label.
Response: B
(B: 7.40, A: 8.47)
